B1: SLC6A17 (parent)
chain: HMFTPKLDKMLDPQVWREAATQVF

- Variants of: B1
- protocol: protein stability index of a GFP-peptide fusion (GPS, HEK-293T) (PSI 1-6); higher = more stable;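 also: lentivirally expressed fusions sorted by FACS into six bins by GFP to DsRed ratio, PSI derived from sequencing read proportions per bin multiplied by bin number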
- runParameters: c terminus: a fixed tail appended
Hi, to clarify the labels: Criterion met covers protein stability index from 2 upward, Criterion not met covers anything below 2.

Example entries begin here.
L11C = Criterion met
V23K = Criterion met
V23I = Criterion not met
M10K = Criterion not met
Q22E = Criterion not met
W16C = Criterion met
D8V = Criterion not met
A19I = Criterion not met

[in] Quick check: does L11R have protein stability index greater than or equal to 2?
[out] Criterion met

[in] Quick check: does T4R have protein stability index greater than or equal to 2?
[out] Criterion met

[in] Quick check: does D12I have protein stability index greater than or equal to 2?
[out] Criterion not met

[in] Quick check: does T4Q have protein stability index greater than or equal to 2?
[out] Criterion not met

[in] Quick check: does A19H have protein stability index greater than or equal to 2?
[out] Criterion met

[in] Quick check: does F24H have protein stability index greater than or equal to 2?
[out] Criterion met

[in] Quick check: does T21G have protein stability index greater than or equal to 2?
[out] Criterion met

[in] Quick check: does E18L have protein stability index greater than or equal to 2?
[out] Criterion not met

[in] Quick check: does F24R have protein stability index greater than or equal to 2?
[out] Criterion met

Ref: the supplement of paper PMC10567573
